B1: tRNA (parent)
chain: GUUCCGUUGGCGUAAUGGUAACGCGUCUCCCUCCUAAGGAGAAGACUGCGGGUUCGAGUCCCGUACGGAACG

Variants of: B1
Experiment: yeast fitness relative to wild type (ratio to wild type); higher = fitter; tRNA-Arg(CCU), competitive growth, 37 C, YPD
This sample holds only a part of the variants without activity.
OUTCOME MEASURE: yeast fitness
No unit in the answer, please; the number alone is enough.

Before answering, review these 10 worked examples.
[
  {
    "VARIANT STRING": "C34G G41A A42C G67C",
    "yeast fitness": 0.597
  },
  {
    "VARIANT STRING": "U19A A40G",
    "yeast fitness": 0.75
  },
  {
    "VARIANT STRING": "G17C G50A",
    "yeast fitness": 0.616
  },
  {
    "VARIANT STRING": "C61G G63C",
    "yeast fitness": 0.532
  },
  {
    "VARIANT STRING": "A15G G25A U28C U35A G38A C46G C62U",
    "yeast fitness": 0.527
  },
  {
    "VARIANT STRING": "C4G U16A",
    "yeast fitness": 0.9
  },
  {
    "VARIANT STRING": "U35A A40U A57U",
    "yeast fitness": 0.625
  },
  {
    "VARIANT STRING": "C11G A36C G56A",
    "yeast fitness": 0.533
  },
  {
    "VARIANT STRING": "G6A A20G",
    "yeast fitness": 0.897
  },
  {
    "VARIANT STRING": "C30U G39A C60G",
    "yeast fitness": 0.57
  }
]

Input C4G C29G C66U . Output yeast fitness: 0.588

Input G44C C60G A65G . Output yeast fitness: 0.617

Input C11G C29U A36C A42G . Output yeast fitness: 0.718
